- method notes: Pharmacokinetics of the combination with rifampicin and pyrazinamide in mice
- experimental conditions: mouse, in vivo, po, 12.5 mg/kg, AUC, (I) alone 12.5 mg/kg
quantity: AUC
Please provide the amount together with its unit, number first.

Value of AUC reported for the compound Cc1c(CN2CCN(c3cccc(C(F)(F)F)c3)CC2)cc(-c2ccccc2)n1NC(=O)c1ccncc1 [Compound of formula (I)] is 2210 ng·h/mL

---

- method notes: Pharmacokinetics of the combination with rifampicin and pyrazinamide in mice
- experimental conditions: mouse, in vivo, po, T½, given together without (I): RIF 20.0 + PYR 150.0 mg/kg
quantity: half-life (h)
Reply with just the number (in h).

// recorded half-life for NC(=O)c1cnccn1 [PYR, Pyrazinamide] : 2.09

Attribution: patent US7491721B2
